target: P2RY4; assay: pooled miR-30 sensor sort-seq; sequence = guide strand; settings: shRNA; also: reference of the scale not given here
Consider the following sequences; for each one, report its sensor-assay potency score (higher = more potent).
Write no unit; give the number alone.

Reported sensor-assay potency score (higher = more potent), sequence TTGACAATGTTCAGTACTCGGC : ____
-0.264

Queued: ATAGCAAACAAGAGTGACCAGG
-0.888

Queued: TTGAAATCCTCATCAAACCAAC
-1.03

Queued: TAGAGCAGCTACTGTCCTGGGG
0.0671

Queued: TAGCGGTGCACGCTGATGCAGG
-1.24

Queued: AGTAGAGCAGCTACTGTCCTGG
-1.37

Queued: TAGGAGTAGAGCAGCTACTGTC
-0.823

---

biological target: LASS1; experiment: pooled miR-30 sensor sort-seq; sequence = guide strand; details: shRNA
Please note: T applies when sensor-assay potency score (higher = more potent) is -0.4 or greater, and F applies otherwise.

# check: sensor-assay potency score (higher = more potent) of TGGAGCAGCATGACCACCGAGT is greater than or equal to -0.4
F

Queued: TCGTAGAAGACAGATGGTGGGT
T

Queued: TGTCCATGTATAGCGTAGCGTA
F

Queued: TTGAAGTAAATGTTGAGCTTGG
T

---

Consider the following sequences; for each one, report its sensor-assay potency score (higher = more potent).
molecular target: ZSCAN21; assay: pooled miR-30 sensor sort-seq; sequence = guide strand; conditions: shRNA
Write no unit; give the number alone.

Reported sensor-assay potency score (higher = more potent), sequence TTTCTCTTCTTTCTCCTCGACT : ____
-0.944

Queued: TGATACAAACTCTATCACCGGA
0.695

Queued: TAGACTGGATACACGTCTGTTT
-0.362

Queued: TACTCAATCTGCAATCTCGGAC
-0.338

Queued: TAAAACAACGACAACAACAGGA
0.555

Queued: TTTAAGAAGGTCTGAGCTCTGC
0.0311

---

molecular target: CDH2; experiment: pooled miR-30 sensor sort-seq; sequence = guide strand; settings: shRNA
Consider the following sequences; for each one, report its sensor-assay potency score (higher = more potent).
Write no unit; give the number alone.

Reported sensor-assay potency score (higher = more potent), sequence TTCAACTTCTGCTGACTCCTTC : ____
0.711

Queued: TTTATCTTTAAATTAAGCTGAG
-0.626

Queued: TTCATAGTCAAACACTAACAGG
-1.55

Queued: TTGCTGCATATATCGATCTGGG
-0.846

Queued: TTGTACTTGTCCAAAAACCAAG
-1.35

Queued: TTTCTCGATCAAGTCCAGCTGC
-0.018

Queued: TTATCTTTAAATTAAGCTGAGC
-0.63

Queued: TTTTTATCTCTATCAGACCTGA
-0.29

---

target: TRIM38; assay: pooled miR-30 sensor sort-seq; sequence = guide strand; details: shRNA
Consider the following sequences; for each one, report its sensor-assay potency score (higher = more potent).
Write no unit; give the number alone.

Reported sensor-assay potency score (higher = more potent), sequence TCTGTCTTCAAGTTGCTTCAGT : ____
0.253

Queued: TAACATTTTCTTCACATCGAAG
-1.18

Queued: TTCACATCGAAGTAAAGCTTGG
-0.536

Queued: TATAAAAGGATACAACTCCGGC
-0.57

Queued: TTCTTGATCCGTCTCTTTGAGG
-1.24

Queued: TAAACCTGGAAATAGGGCCGGA
-0.714

Queued: TACGTCTTCAACAAGAGCTGTG
-0.0393

Queued: TTAGTTATTCGCATTGCTGTGG
0.226

Queued: TTTTGTCACAGCTTTCTGGAGC
-0.543

---

molecular target: SEC61B; experiment: pooled miR-30 sensor sort-seq; sequence = guide strand; conditions: shRNA
endpoint_name: sensor-assay potency score (higher = more potent)

Reported sensor-assay potency score (higher = more potent), sequence TACTGGAACAGGGCCAACTTTG : ____
-1.5

Queued: ATAACCAATACTGGAACAGGGC
-0.892

Queued: TGGAACAGGGCCAACTTTGAGC
-1.17

Queued: AAATGTGCAACATAAATACAGA
-1.05

Queued: ATGTGCAACATAAATACAGAAG
-1.59

---

target: VWA3A; test: pooled miR-30 sensor sort-seq; sequence = guide strand; conditions: shRNA
endpoint_name: sensor-assay potency score (higher = more potent)
Write no unit; give the number alone.

Reported sensor-assay potency score (higher = more potent), sequence TAGTGCTCCATCTTTGGGCTGT : ____
0.398

Queued: TTCTGCATCATTTTTCTTCTGG
0.433

Queued: TTCACATCTCTTTTCTCCCTGA
0.334

Queued: TTAGCTGAAGTGTCTTTGGTTT
-0.499

Queued: TTTAGGACAAGGCTGCAGCTTG
-0.774

Queued: TACATCCGCATAGCTCTGCTGA
-0.863

Queued: TCGAGCAGTACAACCACCCTTT
0.012

Queued: TTCAGCTGGAGGTCGCAGCCGC
-0.797

Queued: TAAATTGTTGTGACTCACGGGA
0.0538

---

molecular target: LRRC8D; assay: pooled miR-30 sensor sort-seq; sequence = guide strand; conditions: shRNA
Please note: YES applies when sensor-assay potency score (higher = more potent) is -0.5 or greater, and NO applies otherwise.

# check: sensor-assay potency score (higher = more potent) of TAGCTCACATCTAAGCATCTGA is greater than or equal to -0.5
YES

Queued: TTAACATAACAACAGCTAGGTA
NO

Queued: TGATCTTCCACAACAAGCCCGC
YES

Queued: TATAGATCAAGTCACTATCTTC
NO

Queued: TTATGAATGACTAACTTTGTAA
YES

Queued: TAACATAACAACAGCTAGGTAA
YES

Queued: TTTGTAAACATTCAGTAGCGGC
NO

Queued: TTATCCAGGATTGTCATGCTGG
YES

Queued: TTTTTGAGCAAATACACCCAGG
NO

---

target: SIAE; test: pooled miR-30 sensor sort-seq; sequence = guide strand; settings: shRNA
endpoint_name: sensor-assay potency score (higher = more potent)
Write no unit; give the number alone.

Reported sensor-assay potency score (higher = more potent), sequence TTGATGTATGAAGCAAAGCGAA : ____
-1.38

Queued: TTTCACACTGGTCACTTTCTTC
-0.603

Queued: TTATTTTCTCCAAAGTCTGTTG
-0.694

Queued: TTTAACTCGAACAACAGTTTGC
-0.109

Queued: TAGACAACTCCCTTGTAGCATT
-0.9

Queued: TTGAGGTCCAATTTGTCTGTAG
0.183

Queued: TATCTGTAACACAGTCATCTGC
-0.344

---

biological target: CD300LG; experiment: pooled miR-30 sensor sort-seq; sequence = guide strand; details: shRNA
endpoint_name: sensor-assay potency score (higher = more potent)
Write no unit; give the number alone.

Reported sensor-assay potency score (higher = more potent), sequence TTCCCTGTAGGTGCACTGCAGG : ____
-0.985

Queued: TCTTCTGCATAGATGGTGCCAG
-0.529

Queued: TCTTCTTCTGCATAGATGGTGC
-0.808

Queued: TCTGTGTTAGACACCTACGTGC
0.23

Queued: TTCTTCTTCTGCATAGATGGTG
-0.287

Queued: TTGGTGTCGCAGACAGAGCAGA
-1.29

Queued: TCCTGCACCAGTACTTCCGGTG
-1.28

---

Consider the following sequences; for each one, report its sensor-assay potency score (higher = more potent).
target: PROM2; test: pooled miR-30 sensor sort-seq; sequence = guide strand; details: shRNA
Write no unit; give the number alone.

Reported sensor-assay potency score (higher = more potent), sequence TTGACGGCAAAGATGATGCTGG : ____
-0.136

Queued: TAGGACATCTGAGGTCTCCAGC
-0.69

Queued: TTGTGCTCTGTCTTCACTCGTC
0.345

Queued: TTGAGCTGCAGGACTGTCCAGA
-0.114

Queued: TTGGGGGACATCAGAGACCAGG
-1.48

Queued: TATTTGGAGGTCTTGACGGCAA
-0.214

---

target: SLC29A1; test: pooled miR-30 sensor sort-seq; sequence = guide strand; conditions: shRNA
Consider the following sequences; for each one, report its sensor-assay potency score (higher = more potent).
Write no unit; give the number alone.

Reported sensor-assay potency score (higher = more potent), sequence TTTCTGATAGCTCCGAGCCACT : ____
-1.47

Queued: TTTGCTAATGAGGTCCAACTTG
-0.866

Queued: ATGAAGAAGATGAACCAGGCAT
0.328

Queued: TTTGTATCTGTCCTGAGGCTGG
-0.764

Queued: TCGAAGACCACAGTCAGGTAGC
-0.552

Queued: TTGTGAAATACTGAGTGGCCGT
-0.907

Queued: TCAAGAAACAGGACACAGGAAT
-0.724

Queued: AAATGATAACAGCACAGGCTGT
-0.935

Queued: TAACGTTCCCAGGTGCTGCTGC
0.232

Queued: TGAATTAATGAGCACGATCTTG
-0.995

Queued: TAGGGTCATGACATTGTTGAAG
-0.605

Queued: TTGCTAATGAGGTCCAACTTGG
-1.11

Queued: TTGACCTCAACAGTCACGGCTG
0.158
